Listed next: entries and their corresponding melting point.

Sample records with melting point:
Look up melting point of CCSc1cc(C)nc(SCC)c1NC(=O)CN1CCN(CCSc2nc3ccccc3o2)CC1 [Example 34] and report it. 108 to 109 °C

Complete the entry with melting point for CCOCCOc1ccc(C(C)C)c(NC(=O)CN2CCN(CCCSc3nc4ccccc4o3)CC2)c1C(C)C [Example 71] 99 to 100 °C

Specify measured melting point for COC(=O)c1ccc2nc(SCCN3CCN(CC(=O)Nc4c(C(C)C)cccc4C(C)C)CC3)oc2c1C(=O)OC [Example 99] . 186 to 187 °C

Recall and state the measured melting point for CSc1cc(C)nc(SC)c1NC(=O)CN1CCN(CCSc2nc3ccccc3s2)CC1 [Example 31] . 136 to 139 °C

***
Return melting point for the following molecule: "CC(C)c1cc(OC(=O)[C@H](C)N)cc(C(C)C)c1NC(=O)CN1CCN(CCSc2nc3ccccc3o2)CC1.O=C(O)C(F)(F)F.O=C(O)C(F)(F)F.O=C(O)C(F)(F)F" 183 to 184 °C

Please report the measured melting point for CC(C)c1cccc(C(C)C)c1NC(=O)CN1CCN(CCSc2nc3cccc(CO)c3o2)CC1 [Example 102] 138 to 139 °C

Given CC(C)c1ccc(O)c(C(C)C)c1NC(=O)CN1CCN(CCSc2nc3cccc(C(F)(F)F)c3o2)CC1 [Example 130] , respond with its melting point. 82 to 84 °C

* * *

METRIC NAME: melting point

Tell me its melting point given "CC(C)c1cc(O[C@@H]2O[C@H](CO)[C@@H](O)[C@H](O)[C@H]2O)cc(C(C)C)c1NC(=O)CN1CCN(CCSc2nc3cccc(C(F)(F)F)c3o2)CC1" as the entry. 130 to 133 °C

Respond only with melting point recorded for "Cc1cc(SC(C)C)c(NC(=O)CN2CCN(CCSc3nc4ncccc4o3)CC2)c(SC(C)C)n1.Cl.Cl" 170 to 172 °C

Give the value of melting point reported for the following: "CC(C)c1cccc(C(C)C)c1NC(=O)CCN1CCN(CCCSc2nc3ccccc3o2)CC1" 93 to 95 °C

Determine its reported melting point: "CC(C)c1cccc(C(C)C)c1NC(=O)NCCN1CCN(CCSc2nc3ncccc3o2)CC1" 175 to 176 °C

Quickly give me recorded melting point for "CCCCCCCN(CCN1CCN(CCSc2nc3ccccc3s2)CC1)C(=O)Nc1c(SCC)cc(C)nc1SCC.Cl.Cl" 136 to 138 °C

Give the measured melting point for "CSc1ncnc(SC)c1NC(=O)CN1CCN(CCSc2nc3ccccc3o2)CC1" 171 to 172 °C

// fetch melting point given entry "COc1cc(C)nc(OC)c1NC(=O)CN1CCN(CCSc2nc3ccccc3o2)CC1" 113 to 115 °C
